What Test A disease control rating (wheat leaf blotch) was measured for each of the following?
Tested on: Septoria tritici
assay.name: Test A: wheat leaf blotch, preventive spray on wheat seedlings
Format: in vivo
setup.conditions: 50 ppm, 100 = 100% disease control, 0 = no control relative to controls
Respond with the bare value in %.

Septoria tritici / Test A disease control rating (wheat leaf blotch) / `COc1cc(F)c(Nc2c(-c3ccc(F)cc3Br)c(C)nn2C)c([N+](=O)[O-])c1` : value? 99

Now try `COc1ccc(-c2c(C)nn(C)c2Nc2c(Cl)cccc2[N+](=O)[O-])c(Cl)c1` . 100

Now try `COc1cc(F)c(Nc2c(-c3ccc(C#N)cc3Cl)c(C)nn2C)c([N+](=O)[O-])c1` . 99

Now try `Cc1cccc([N+](=O)[O-])c1Nc1c(-c2c(F)cc(F)cc2Cl)c(C)nn1C` . 99

Data origin: patent US12398107B2
